Dear all, I have gathered published IC50 values for UniProt:P04818; the list follows.
Sequence (P04818 whole entry): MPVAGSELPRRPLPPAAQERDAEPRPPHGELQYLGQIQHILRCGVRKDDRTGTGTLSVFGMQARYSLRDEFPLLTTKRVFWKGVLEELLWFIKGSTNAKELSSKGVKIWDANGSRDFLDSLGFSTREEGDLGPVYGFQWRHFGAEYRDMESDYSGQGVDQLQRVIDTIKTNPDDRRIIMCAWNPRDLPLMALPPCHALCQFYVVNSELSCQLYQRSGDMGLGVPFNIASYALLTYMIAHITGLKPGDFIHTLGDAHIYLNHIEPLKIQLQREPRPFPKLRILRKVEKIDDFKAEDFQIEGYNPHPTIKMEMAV
metric: IC50 (nM)

compound	unitInfo	number
Nc1nc2ncc(CNc3ccc(C(=O)NC(CCS(=O)(=O)O)C(=O)O)cc3)cc2c(=O)[nH]1 (stereo not drawn)	nM	55000
Cc1nc2ccc(CN(CCCO)c3ccc(C(=O)N[C@@H](CCC(=O)O)C(=O)O)cc3F)cc2c(=O)[nH]1	nM	977
Cc1ccc2nc(N)nc(O)c2c1Sc1ccc(C(=O)N[C@H](C(=O)O)c2cccc(C(=O)O)c2)cc1	nM	3
Cc1nc2ccc(CN(CCO)c3ccc(C(=O)N[C@@H](CCC(=O)O)C(=O)O)cc3)cc2c(=O)[nH]1	nM	501
Cc1nc2ccc(CN(CC#N)c3ccc(C(=O)N[C@@H](CCC(=O)O)C(=O)O)s3)cc2c(=O)[nH]1	nM	3090

A: Cc1ccc2nc(N)nc(O)c2c1Sc1ccc(C(=O)N[C@H](C(=O)O)c2cccc(O)c2)cc1
B: C=CCN(Cc1ccc2nc(C)[nH]c(=O)c2c1)c1ccc(C(=O)N[C@@H](CCC(=O)O)C(=O)O)s1
C: Cc1nc2ccc(CN(CCN)c3ccc(C(=O)N[C@@H](CCC(=O)O)C(=O)O)c(F)c3)cc2c(=O)[nH]1
D: C=CCN(Cc1ccc2nc(C)[nH]c(=O)c2c1)c1cnc(C(=O)N[C@@H](CCC(=O)O)C(=O)O)s1
Ask: In this exercise, place the 4 compounds in ascending sequence of their recorded IC50. Answer format: the labels, in the requested order.
Reply: A, D, B, C
(A: 3 nM, D: 1070 nM, B: 1660 nM, C: 11700 nM)

A: Cc1nc2ccc(CN(CCO)c3ccc(C(=O)N[C@@H](CCC(=O)O)C(=O)O)s3)cc2c(=O)[nH]1
B: Nc1nc(O)c2cc(N(C=O)Cc3ccc(C(=O)NC(CCC(=O)O)C(=O)O)cc3)cnc2n1 (stereo not drawn)
C: COC(=O)[C@H](Cc1ccc(N)cc1)NC(=O)c1ccc(Sc2c(C)ccc3nc(N)[nH]c(=O)c23)cc1
Ask: Arrange the 3 entries by IC50 so the values rise. I would appreciate it if you listed the labels in the requested order.
Reply: C, A, B

P: Cc1sc2nc(N)[nH]c(=O)c2c1Sc1ccccc1
Q: C=CCN(Cc1ccc2nc(C)[nH]c(=O)c2c1)c1ccc(C(=O)N[C@@H](CCC(=O)O)C(=O)O)c(F)c1
Ask: Thinking about recorded IC50 values, which is higher, P or Q ? Field: selected label. Fill in the label of the entry you choose.
Reply: P
(P: 1200 nM, Q: 75.9 nM)
